Tested on: UACC-257 melanoma
Experiment: NCI-60 one-dose screen, 48 h (100 = growth as untreated, 0 = no growth, -100 = all killed)
Settings: 10 µM unless noted
Compounds without any hit were thinned out: in the full panel of roughly 83,000, 20% have a hit.
Ranges used to classify growth: bin 1 (below 40%), bin 2 (40% to below 90%), bin 3 (90% or more)

[
  {
    "Molecule": "C=C(C)[C@@]12OC3(/C=C/C=C/CCCCC)O[C@@H]1[C@@H]1[C@@H]4O[C@]4(CO)[C@@H](O)[C@]4(O)C(=O)C(C)=C[C@H]4[C@@]1(O3)[C@H](C)[C@H]2OC(=O)c1ccccc1",
    "Classification": "bin 3"
  },
  {
    "Molecule": "O=C1C2C(C(=O)[N]1[Hg][c]1cccs1)C1(Cl)C(Cl)=C(Cl)C2(Cl)C1(Cl)Cl (stereo not drawn)",
    "Classification": "bin 1"
  },
  {
    "Molecule": "COc1ccc(/C=C\\c2cc(OC)c(OC)c(OC)c2)cc1NC(=O)/C=C/c1cc(OC)c(OC)c(OC)c1",
    "Classification": "bin 2"
  },
  {
    "Molecule": "COc1cccc2c1c(C(=O)C(=O)Nc1cc(C)no1)cn2Cc1ccc(F)cc1",
    "Classification": "bin 2"
  },
  {
    "Molecule": "CC(C)(C)C(=O)OCOP(=O)(OCOC(=O)C(C)(C)C)C1CCCN(O)C1=O (stereo not drawn)",
    "Classification": "bin 1"
  },
  {
    "Molecule": "O=C1C=C2C(=CCOC2O)O1 (stereo not drawn)",
    "Classification": "bin 1"
  },
  {
    "Molecule": "COc1cc(C=C2c3ccccc3C(=O)c3ccccc32)ccc1OCCCCOc1cc2c(cc1OC)C(=O)N1CCCC1C=N2 (stereo not drawn)",
    "Classification": "bin 1"
  },
  {
    "Molecule": "O=c1[nH]c2ccc([N+](=O)[O-])cc2c(=O)o1",
    "Classification": "bin 3"
  },
  {
    "Molecule": "O[C@H](CN1CC1)[C@@H](O)CN1CC1",
    "Classification": "bin 2"
  },
  {
    "Molecule": "COc1ccc2nc(NC(=O)COc3cc(/C=C\\c4cc(OC)c(OC)c(OC)c4)ccc3OC)sc2c1",
    "Classification": "bin 2"
  },
  {
    "Molecule": "COC(=O)[C@@H](C)C[C@H](Cc1ccccc1)NC(=O)c1csc([C@@H](C[C@H](C(C)C)N(C)C(=O)[C@H](C)NC(=O)[C@H]2CCCCN2C)OC(C)=O)n1",
    "Classification": "bin 2"
  },
  {
    "Molecule": "Cc1ccccc1NC(=NCCCN1CC1)Nc1ccccc1C",
    "Classification": "bin 3"
  },
  {
    "Molecule": "N#C[Se]Cc1cc(-c2ccccc2)n(-c2ccc(S(N)(=O)=O)cc2)n1",
    "Classification": "bin 1"
  },
  {
    "Molecule": "CCCC[C@H](NC(=O)[C@H]1CCCCN1C)C(=O)N(C)[C@H](C[C@@H](OC(C)=O)c1nc(C(=O)N[C@@H](Cc2ccccc2)C[C@H](C)C(=O)OCC)cs1)C(C)C",
    "Classification": "bin 2"
  },
  {
    "Molecule": "O=C(Nc1ccc(Cl)cc1)Nc1nccs1",
    "Classification": "bin 2"
  },
  {
    "Molecule": "CCC1(C)CC(CCNCc2ccccc2O)(c2ccc(C)cc2)CCO1 (stereo not drawn)",
    "Classification": "bin 3"
  }
]

###

Test system: NCI-H460 lung
Experiment: NCI-60 one-dose screen, 48 h
Conditions: 10 µM unless noted
About 83,000 compounds went through this panel and 20% of them were active in at least one assay; those are over-represented in the sample as a whole. The source made the active and inactive calls. Rule for the calls: active = growth percent below 10; inactive = the rest.
Possible outcomes: active, inactive

[
  {
    "Molecule": "Cc1cnc(/C=C/C(=O)O)cc1-c1cc2c(cc1C)C(C)(C)CCC2(C)C",
    "Classification": "inactive"
  },
  {
    "Molecule": "O=C1CNC(c2ccccc2)c2cc(Cl)ccc2N1 (stereo unspecified)",
    "Classification": "inactive"
  },
  {
    "Molecule": "CNCc1cccnc1",
    "Classification": "inactive"
  },
  {
    "Molecule": "COc1ccc(-n2c(C)nc3cc(OC)c(OC)cc3c2=O)cc1OC",
    "Classification": "inactive"
  },
  {
    "Molecule": "CCOP(=O)(Cc1ccc(C#N)cc1)OCC",
    "Classification": "inactive"
  },
  {
    "Molecule": "CN(C)CCCOc1ccc2c(c1)c(C(=O)C(=O)NCCO)cn2Cc1ccccc1",
    "Classification": "inactive"
  },
  {
    "Molecule": "CCOP(=O)(NC[C@H]1O[C@](O)(CO)[C@@H](O)[C@@H]1O)OCC",
    "Classification": "inactive"
  },
  {
    "Molecule": "CN(C)C(=O)Oc1ccc(Br)cc1",
    "Classification": "inactive"
  },
  {
    "Molecule": "C[C@]12CC[C@H]3[C@@H](C[C@@H]4SC(Nc5ccccc5)=N[C@@]45CC(O)CC[C@]35C)[C@@H]1CCC2O (stereo partly specified)",
    "Classification": "active"
  },
  {
    "Molecule": "NC1CC2CCCCC2CC1(O)c1ccccc1 (stereo unspecified)",
    "Classification": "inactive"
  },
  {
    "Molecule": "CC[C@H](C)[C@H](NC(=O)[C@H]1CCCCN1C)C(=O)N(C)[C@H](C[C@@H](OC(C)=O)c1nc(C(=O)N[C@@H](Cc2ccccc2)C[C@H](C)C(=O)OC)cs1)C(C)C",
    "Classification": "inactive"
  }
]

###

Tested on: MDA-MB-231 breast
Test: NCI-60 one-dose screen, 48 h
Details: 10 µM unless noted
Compounds without any hit were thinned out: in the full panel of roughly 83,000, 20% have a hit. Active and inactive are the calls of the source. The calls were made as follows: active = growth percent below 10; inactive = the rest.
Possible outcomes: YES (active), NO (inactive)

[
  {
    "Compound": "C[C@]12C[C@@H](CO)[C@H](O)C[C@@H]1CC[C@@H]1[C@@H]2CC[C@]2(C)[C@@H](O)CC[C@@H]12",
    "Classification": "NO"
  },
  {
    "Compound": "CCCC(=O)O[C@@H]1C[C@H]2C[C@@H](O[C@@H]3O[C@@H](C)[C@@H](O)[C@@H](O)[C@H]3OC)C[C@@H](C[C@@H](C)/C=C/C=C\\C[C@@H]3O[C@@H](C[C@@H]3C)[C@@H](O)C[C@H]3C[C@@]1(O)C(=O)O3)O2",
    "Classification": "NO"
  },
  {
    "Compound": "COC(=O)[C@@H](C)C[C@H](Cc1ccccc1)NC(=O)c1nc([C@@H](C[C@H](C(C)C)N(C)C(=O)[C@@H](NC(=O)[C@H]2CCCCN2C)C(C)C)OC(C)=O)sc1C",
    "Classification": "YES"
  },
  {
    "Compound": "CCOC(=S)S[C@H]1C[C@@H]2[C@H](CC[C@]3(C)C(=O)CC[C@@H]23)[C@@]2(C)CCC(=O)C=C12",
    "Classification": "NO"
  },
  {
    "Compound": "O=[N+]([O-])CC(c1ccccc1Cl)c1c(-c2ccccc2)[nH]c2ccccc12 (configuration not stated)",
    "Classification": "NO"
  },
  {
    "Compound": "COP(=O)(OC)C(O)c1ccc(Cl)cc1 (configuration not stated)",
    "Classification": "NO"
  },
  {
    "Compound": "CC1=C(CCCOC(=O)CN)C2=C(C)C3(CC3)[C@@](C)(O)C(=O)C2=C1",
    "Classification": "NO"
  }
]

###

Property: growth; scope: individual compounds
Tested on: SK-MEL-5 melanoma
Experiment: NCI-60 one-dose screen, 48 h (100 = growth as untreated, 0 = no growth, -100 = all killed)
Settings: 10 µM unless noted
About 83,000 compounds went through this panel and 20% of them were active in at least one assay; those are over-represented in the sample as a whole.

[
  {
    "Compound": "CCOC(=O)[C@@H](C)C[C@H](Cc1ccccc1)NC(=O)c1csc([C@@H](C[C@H](C(C)C)N(C)C(=O)[C@H](CC)NC(=O)[C@H]2CCCCN2C)OC(C)=O)n1",
    "Output unit": "%",
    "growth": -52.9
  },
  {
    "Compound": "COC1OC(CO)C(O)C(O)[CH]1[Hg][O]C(C)=O (stereo not drawn)",
    "Output unit": "%",
    "growth": 86.2
  },
  {
    "Compound": "CCOP1(=O)CC(C)=C(Cl)C(P(=O)(OCC)OCC)C1 (stereo not drawn)",
    "Output unit": "%",
    "growth": 101
  },
  {
    "Compound": "O=C([O][Hg][CH2]C1COCC([CH2][Hg][O]C(=O)c2ccccc2)O1)c1ccccc1 (stereo not drawn)",
    "Output unit": "%",
    "growth": 102
  },
  {
    "Compound": "CC1=C2[C@@H](CC1)[C@]1(C)O[C@@](C(C)C)(C[C@H]1O)[C@H]2OC(=O)C1CC1c1ccccc1 (stereo partly drawn)",
    "Output unit": "%",
    "growth": 85.4
  },
  {
    "Compound": "CCOC(=O)c1c(C)n(Cc2ccccc2)c2cc(CN(C)C)c(O)cc12",
    "Output unit": "%",
    "growth": 82.5
  },
  {
    "Compound": "COC(=O)[C@@]1(C)CC[C@]2(C)CC[C@]3(C)C4=CC=C5C(=CC(=O)C(O)=C5C)[C@]4(C)CC[C@@]3(C)[C@@H]2C1",
    "Output unit": "%",
    "growth": -97.1
  },
  {
    "Compound": "CC1=C(CCCOC(=O)CN)C2=C(C)C3(CC3)[C@@](C)(O)C(=O)C2=C1",
    "Output unit": "%",
    "growth": 92.2
  }
]

Sourced from PubChem BioAssay (NCI)
